- Test system: TMD8 cells
- experimental-protocol: 4-day proliferation assay, TMD8
- Type: cell-based
- stated-conditions: Homo sapiens, 96 h, 4 days incubation, CellTiterGLO, read-out: Anti-proliferation: TMD-8 IC50
observation-type: pIC50
Just the number, please; pIC50 means minus log10 of the concentration in mol/L.

A selection of reference data follows.
[
  {
    "compound": "O=C(Nc1ccc(-n2nccn2)c(Cl)c1)c1cnn(-c2cccc3c(=O)[nH]ccc23)c1C(F)(F)F [Cpd 129]",
    "pIC50": 5.61
  },
  {
    "compound": "Cc1c(C(=O)Nc2cnc(-n3nccn3)c(Cl)c2)cnn1-c1cccc2ncccc12 [Cpd 39]",
    "pIC50": 4.84
  }
]

Provide value of pIC50 for this record tested with TMD8 cells: N#Cc1cc(NC(=O)c2cnn(-c3cnc(N)c4c(F)cccc34)c2C(F)(F)F)cnc1-n1nccn1 [Cpd 111]
5.48

Provide value of pIC50 for this record tested with TMD8 cells: N#Cc1cc(NC(=O)c2cnn(-c3ncnn4cccc34)c2C(F)(F)F)cnc1-n1nccn1 [Cpd 140]
5.27
